Experiment: Michaelis constant for Actinidin-catalyzed hydrolysis
Assay type: ADME
MEASUREMENT_NAME: Log 1/Km

> print(dat)
                         compound.structure  measurement.name  value.reported
1  O=C(CNC(=O)c1ccccc1)Oc1cc(Cl)c(Cl)c(Cl)c1          Log 1/Km            4.01
2          O=C(CNC(=O)c1ccccc1)Oc1cccc(F)c1          Log 1/Km            3.01
3   O=C(CNC(=O)c1ccccc1)Oc1cccc(C(F)(F)F)c1          Log 1/Km            3.47
4        N#Cc1ccc(OC(=O)CNC(=O)c2ccccc2)cc1          Log 1/Km            3.62
5  O=C(CNC(=O)c1ccccc1)Oc1ccc([N+](=O)[O-])cc1          Log 1/Km             3.8
6  O=C(CNC(=O)c1ccccc1)Oc1cccc([N+](=O)[O-])c1          Log 1/Km            3.53

====

Assay: Michaelis constant for Actinidin-catalyzed hydrolysis
Assay type: ADME
MEASUREMENT_NAME: Log 1/Km

> print(dat)
                          compound.structure  measurement.name  value.reported
 1       Cc1cc(C)cc(OC(=O)CNC(=O)c2ccccc2)c1          Log 1/Km            3.37
 2   CC(C)(C)c1cccc(OC(=O)CNC(=O)c2ccccc2)c1          Log 1/Km            3.66
 3      CCc1cc(C)cc(OC(=O)CNC(=O)c2ccccc2)c1          Log 1/Km            3.52
 4          Nc1ccc(OC(=O)CNC(=O)c2ccccc2)cc1          Log 1/Km            2.55
 5     CC(=O)c1ccc(OC(=O)CNC(=O)c2ccccc2)cc1          Log 1/Km            3.47
 6     COc1cc(OC)cc(OC(=O)CNC(=O)c2ccccc2)c1          Log 1/Km             3.6
 7          Cc1ccc(OC(=O)CNC(=O)c2ccccc2)cc1          Log 1/Km            2.95
 8  NS(=O)(=O)c1ccc(OC(=O)CNC(=O)c2ccccc2)cc1          Log 1/Km            3.22
 9          O=C(CNC(=O)c1ccccc1)Oc1cccc(I)c1          Log 1/Km            3.93
10  NS(=O)(=O)c1cccc(OC(=O)CNC(=O)c2ccccc2)c1          Log 1/Km            3.42
11        N#Cc1cccc(OC(=O)CNC(=O)c2ccccc2)c1          Log 1/Km            3.08
12             O=C(CNC(=O)c1ccccc1)Oc1ccccc1          Log 1/Km            2.77
13         O=C(CNC(=O)c1ccccc1)Oc1cccc(Cl)c1          Log 1/Km            3.63
14    CC(=O)Nc1cccc(OC(=O)CNC(=O)c2ccccc2)c1          Log 1/Km            3.18
15         O=C(CNC(=O)c1ccccc1)Oc1ccc(Cl)cc1          Log 1/Km            3.04
16         COc1ccc(OC(=O)CNC(=O)c2ccccc2)cc1          Log 1/Km            2.87
17     NC(=O)c1ccc(OC(=O)CNC(=O)c2ccccc2)cc1          Log 1/Km            3.47
18          O=C(CNC(=O)c1ccccc1)Oc1ccc(F)cc1          Log 1/Km            2.72
19     O=C(CNC(=O)c1ccccc1)Oc1cc(Cl)cc(Cl)c1          Log 1/Km            3.84
20     NC(=O)c1cccc(OC(=O)CNC(=O)c2ccccc2)c1          Log 1/Km            3.15
21          Cc1cccc(OC(=O)CNC(=O)c2ccccc2)c1          Log 1/Km            3.26
22  O=C(CNC(=O)c1ccccc1)Oc1cc([N+](=O)[O-])cc([N+](=O)[O-])c1          Log 1/Km             3.9
23         O=C(CNC(=O)c1ccccc1)Oc1cccc(Br)c1          Log 1/Km            3.64
